Tested on: MDA-MB-231
measurement-protocol: drug sensitivity score (DSS), CellTiter-Glo (DSS (AUC-based score)); higher = stronger drug effect (viability inhibition or cytotoxicity); extreme values may be limits of the assay
condition-description: incubation time: 72 h
Give measured drug sensitivity score for each item. Keep answers brief.

Ask | # lookup: drug sensitivity score of O=C(Nc1cccnc1)N1CCC(Cc2cccc(Oc3ccc(C(F)(F)F)cn3)c2)CC1
Reply | 0

Ask | Quick one: O=P1(N(CCCl)CCCl)NCCCO1 (configuration not stated) [Cyclophosphamide]
Reply | 0

Ask | Quick one: O=C(/C=C/c1cccc(S(=O)(=O)Nc2ccccc2)c1)NO
Reply | 14

Ask | Quick one: CNC(=O)c1cccc(-c2ccc3c(N4CCOC[C@@H]4C)nc(N4CCOC[C@@H]4C)nc3n2)c1
Reply | 8.36

Ask | Quick one: CO[C@H]1C[C@@H]2CC[C@@H](C)[C@@](O)(O2)C(=O)C(=O)N2CCCC[C@H]2C(=O)O[C@H]([C@H](C)C[C@@H]2CC[C@@H](OP(C)(C)=O)[C@H](OC)C2)CC(=O)[C@H](C)/C=C(\C)[C@@H](O)[C@@H](OC)C(=O)[C@H](C)C[C@H](C)/C=C/C=C/C=C/1C
Reply | 0

Ask | Quick one: C=C1C[C@@H]2[C@H](CC[C@]3(C)C(=O)CC[C@@H]23)[C@@]2(C)C=CC(=O)C=C12
Reply | 0

Ask | Quick one: CC(C)C[C@@H](C(=O)N[C@H](C(=O)OC1CCCC1)c1ccccc1)[C@H](O)C(=O)NO
Reply | 11.1

====

Tested on: HDQ-P1
measurement-protocol: normalised viability (% of control), CellTiter-Blue; higher = more viable cells (about 100 = DMSO control)
condition-description: incubation time: 72 h
readout-type: normalised viability (%)
Record the value in %, omitting the unit from your answer.

Ask | # lookup: normalised viability of O=C(Nc1cccnc1)N1CCC(Cc2cccc(Oc3ccc(C(F)(F)F)cn3)c2)CC1 [PF-3845] (1000 nM)
Reply | 144

Ask | Quick one: Cc1ccc(NC(=O)c2ccc(CN3CCN(C)CC3)cc2)cc1Nc1nc(-c2cccnc2)cs1 [Masitinib] (1000 nM)
Reply | 105

Ask | Quick one: CC(C)C[C@@H](C(=O)N[C@H](C(=O)OC1CCCC1)c1ccccc1)[C@H](O)C(=O)NO [Tosedostat] (1000 nM)
Reply | 76.3

Ask | Quick one: COc1cc2/c(=N/c3ccc(Br)cc3F)nc[nH]c2cc1OCC1CCN(C)CC1 [Vandetanib] (1000 nM)
Reply | 48.7

Ask | Quick one: S=P(N1CC1)(N1CC1)N1CC1 [Thio-TEPA] (10000 nM)
Reply | 113

Ask | Quick one: O=C(Nc1ccncc1)C(=O)c1cn(Cc2ccc(Cl)cc2)c2ccccc12 [Indibulin] (1000 nM)
Reply | 61.3

====

Tested on: MDA-MB-468
condition-description: 72 h
readout-type: EC50, CellTox Green (nM)
Record the value in nM, omitting the unit from your answer.

Ask | # lookup: EC50, CellTox Green of O=C(Nc1ccncc1)C(=O)c1cn(Cc2ccc(Cl)cc2)c2ccccc12 [Indibulin]
Reply | 1640

Ask | Quick one: COc1cc2c(NC3CCN(C(C)C)CC3)nc(N3CCC(F)(F)CC3)nc2cc1OCCCN1CCCC1 [UNC0642]
Reply | 3390

Ask | Quick one: CC(C)C[C@@H](C(=O)N[C@H](C(=O)OC1CCCC1)c1ccccc1)[C@H](O)C(=O)NO [Tosedostat]
Reply | 151

Ask | Quick one: O=C(/C=C/c1cccc(S(=O)(=O)Nc2ccccc2)c1)NO [Belinostat]
Reply | 3690

====

Test system: BT-474
measurement-protocol: normalised response (% of control), CellTox Green; higher = less cell death (100 = DMSO, 0 = benzethonium chloride kill control)
condition-description: incubation time: 72 h
readout-type: normalised response (%)
Record the value in %, omitting the unit from your answer.

Ask | # lookup: normalised response of COc1cc2ncnc(Nc3ccc(F)c(Cl)c3)c2cc1OCCCN1CCOCC1 [Gefitinib] (100 nM)
Reply | 100

Ask | Quick one: Nc1cc(C(F)(F)F)c(-c2cc(N3CCOCC3)nc(N3CCOCC3)n2)cn1 [Buparlisib] (10000 nM)
Reply | 24

Ask | Quick one: CC(C)C[C@@H](C(=O)N[C@H](C(=O)OC1CCCC1)c1ccccc1)[C@H](O)C(=O)NO [Tosedostat] (1000 nM)
Reply | 91.7

Ask | Quick one: CN(C)CCOc1ccc(/C(=C(/CCCl)c2ccccc2)c2ccccc2)cc1 [Toremifene] (1000 nM)
Reply | 100

Ask | Quick one: N#Cc1ccc(COC[C@H]2O[C@@H](n3c(NCc4ccc(Cl)c(Cl)c4)nc4c(N)ncnc43)[C@H](O)[C@@H]2O)cc1 (100 nM)
Reply | 100

Ask | Quick one: Nc1cc(C(F)(F)F)c(-c2cc(N3CCOCC3)nc(N3CCOCC3)n2)cn1 [Buparlisib] (100 nM)
Reply | 99

Ask | Quick one: O=C(Nc1cccnc1)N1CCC(Cc2cccc(Oc3ccc(C(F)(F)F)cn3)c2)CC1 [PF-3845] (10000 nM)
Reply | 76.7

====

Give measured normalised viability for each item. Keep answers brief.
System: CAL-148
measurement-protocol: normalised viability (% of control), CellTiter-Blue; higher = more viable cells (about 100 = DMSO control)
condition-description: 3 nM; incubation time: 72 h
Record the value in %, omitting the unit from your answer.

Ask | # lookup: normalised viability of CC(C)C[C@@H](C(=O)N[C@H](C(=O)OC1CCCC1)c1ccccc1)[C@H](O)C(=O)NO
Reply | 100

Ask | Quick one: COCC[n+]1c2c(n(Cc3cnccn3)c1C)C(=O)c1ccccc1C2=O
Reply | 98.3

Ask | Quick one: O=C(Nc1ccncc1)C(=O)c1cn(Cc2ccc(Cl)cc2)c2ccccc12
Reply | 95.4

Ask | Quick one: COC(=O)c1ccc2c(c1)NC(=O)/C2=C(\Nc1ccc(N(C)C(=O)CN2CCN(C)CC2)cc1)c1ccccc1
Reply | 93.5

Ask | Quick one: Nc1cc(C(F)(F)F)c(-c2cc(N3CCOCC3)nc(N3CCOCC3)n2)cn1
Reply | 94.3

Ask | Quick one: Oc1ccc2c(c1)CC[C@H](c1ccccc1)[C@@H]2c1ccc(OCCN2CCCC2)cc1
Reply | 104

Ask | Quick one: C=C1C[C@@H]2[C@H](CC[C@]3(C)C(=O)CC[C@@H]23)[C@@]2(C)C=CC(=O)C=C12
Reply | 95.1

Ask | Quick one: c1ccc2c(CCNc3ccc(Nc4ccncc4)cc3)c[nH]c2c1
Reply | 88.9

====

Tested on: HDQ-P1
measurement-protocol: normalised viability (% of control), CellTiter-Blue; higher = more viable cells (about 100 = DMSO control)
condition-description: incubation time: 72 h
Give measured normalised viability for each item. Keep answers brief.
Record the value in %, omitting the unit from your answer.

Ask | # lookup: normalised viability of Nc1cc(C(F)(F)F)c(-c2cc(N3CCOCC3)nc(N3CCOCC3)n2)cn1 [BKM-120] (300 nM)
Reply | 71.9

Ask | Quick one: N#Cc1ccc(COC[C@H]2O[C@@H](n3c(NCc4ccc(Cl)c(Cl)c4)nc4c(N)ncnc43)[C@H](O)[C@@H]2O)cc1 (300 nM)
Reply | 67

Ask | Quick one: COc1cc2/c(=N/c3ccc(Br)cc3F)nc[nH]c2cc1OCC1CCN(C)CC1 [Vandetanib] (300 nM)
Reply | 31.4

Ask | Quick one: CNC(=O)c1cc(Oc2ccc(NC(=O)Nc3ccc(Cl)c(C(F)(F)F)c3)c(F)c2)ccn1 [Regorafenib] (300 nM)
Reply | 89.8

Ask | Quick one: Cc1ccc(NC(=O)c2ccc(CN3CCN(C)CC3)cc2)cc1Nc1nc(-c2cccnc2)cs1 [Masitinib] (300 nM)
Reply | 68.5

Ask | Quick one: S=P(N1CC1)(N1CC1)N1CC1 [Thio-TEPA] (3000 nM)
Reply | 90.4

Ask | Quick one: c1ccc2c(CCNc3ccc(Nc4ccncc4)cc3)c[nH]c2c1 [Serdemetan] (300 nM)
Reply | 57.9

Ask | Quick one: COc1cc(OC2CCN(C)CC2)ccc1Nc1ncc2c(n1)n(C1CCCC1)c(=O)n2C [AZ 3146] (300 nM)
Reply | 76.6

Ask | Quick one: COCC1(CO)C(=O)C2CCN1CC2 (stereo unspecified) [Prima-1 Met] (300 nM)
Reply | 53.8

Ask | Quick one: CN(C)c1nc(N(C)C)nc(N(C)C)n1 [Altretamine] (300 nM)
Reply | 88.5

Ask | Quick one: O=C(Nc1ccncc1)C(=O)c1cn(Cc2ccc(Cl)cc2)c2ccccc12 [Indibulin] (300 nM)
Reply | 30.7
